Value source: patent US5625031A

Biological target: p34^cdc2 (Homo sapiens)
Sequence (P06493 whole entry): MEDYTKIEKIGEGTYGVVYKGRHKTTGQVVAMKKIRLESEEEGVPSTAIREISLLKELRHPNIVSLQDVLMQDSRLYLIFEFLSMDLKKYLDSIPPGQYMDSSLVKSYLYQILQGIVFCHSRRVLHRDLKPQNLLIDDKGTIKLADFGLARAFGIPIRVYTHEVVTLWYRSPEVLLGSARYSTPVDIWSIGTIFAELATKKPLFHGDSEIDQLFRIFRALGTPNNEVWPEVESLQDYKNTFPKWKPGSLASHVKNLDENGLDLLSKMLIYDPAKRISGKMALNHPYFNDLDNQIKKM
Test: ELISA based competition assay: p34^cdc2 kinase from cell extracts binding to a p107 30mer coated plate
Design: endogenous in cells; HeLa per the general methods
Conditions: Table 1 binding; assay not given, taken as ELISA competition for p34^cdc2 binding; read-out: IC50
Where no end group is shown, it is not given here.
experimentalEndpoint: pIC50
Give bare numbers, as −log10 of the molar value.

LFAFYIMAK [713CF, LFAFYIMAK] :: 4.82

Hi team, please reply with pIC50 for each item in this list.
1. LCEFYIMAK [714AE, LCEFYIMAK]
2. LCAFFIMAK [716YF, LCAFFIMAK]
3. LCAFAIMAK [716YA, LCAFAIMAK]
4. LCAFYIMAK [9mer, LCAFYIMAK]
5. LCAYYIMAK [715FY, LCAYYIMAK]

Result:
[4.64, 4.60, 4.40, 5.05, 4.35]
